Test: Conversion (release) of prodrug salts to parent compound in mouse plasma
Assay type: in vitro ADME
Conditions: mouse, plasma, 37 °C, 12 h, read-out: Release rate (conversion to Compound 1)
Measured quantity: metabolised at 12 h (%)
The reply should contain only the number, in %.

Worked cases, answers included:
Compound: C[C@@]12CC[C@@H]3[C@H](OC(=O)[C@H]3CN3CC4CCCC4C3)[C@@H]3[C@]1(CC[C@@]3(C)O)C2 (stereo partly drawn)
Measured quantity: metabolised at 12 h
Result units: %
Recorded number: 51.4
//
Compound: C[C@@]12CC[C@@H]3[C@H](OC(=O)[C@H]3CN3CCC4(CCCC4)CC3)[C@@H]3[C@]1(CC[C@@]3(C)O)C2
Measured quantity: metabolised at 12 h
Result units: %
Recorded number: 58.8
//
Compound: C[C@@]12CC[C@@H]3[C@H](OC(=O)[C@H]3CN3CCCC3)[C@@H]3[C@]1(CC[C@@]3(C)O)C2
Measured quantity: metabolised at 12 h
Result units: %
Recorded number: 57.7
//
Compound: C[C@@]12CC[C@@H]3[C@H](OC(=O)[C@H]3CN3CCC(N4CCOCC4)CC3)[C@@H]3[C@]1(CC[C@@]3(C)O)C2
Measured quantity: metabolised at 12 h
Result units: %
Recorded number: 52.1
//
Compound: C[C@@]12CC[C@@H]3[C@H](OC(=O)[C@H]3CN3CCCCC3)[C@@H]3[C@]1(CC[C@@]3(C)O)C2
Measured quantity: metabolised at 12 h
Result units: %
Recorded number: 57.9

Next compound, please.
metabolised at 12 h in this record for C[C@@]12CC[C@@H]3[C@H](OC(=O)[C@H]3CN3CCC(N4CCCCC4)CC3)[C@@H]3[C@]1(CC[C@@]3(C)O)C2 : 52.5

Reference source for all entries: patent US20260315434A1
